Protocol notes: Pharmacokinetic studies of certain compounds in female Balb/c mice (Example 5)
Assay type: in vivo
Run parameters: female, Balb/c, mouse, plasma, iv, 1 mg/kg, I-8 IV 1 mg/kg, 0.5 hr, read-out: Plasma concentration Mean
Readout kind: concentration at 0.5 hr

INSERT INTO assay_data (record_smiles, readout_kind, measured_value) VALUES
  ('CC(C)Cc1sc(Nc2ncc(-c3cccs3)cc2C(=O)O)nc1C1=CCCC1', 'concentration at 0.5 hr', '279 ng/mL');

* * *

Protocol notes: Pharmacokinetic studies of certain compounds in female Balb/c mice (Example 5)
Assay type: in vivo
Run parameters: mouse, plasma, I-1 PO 30 mg/kg
Readout kind: Tmax (h)

INSERT INTO assay_data (molecule, readout_kind, measured_value) VALUES
  ('CC(C)Cc1sc(Nc2ncc(-c3cccs3)cc2C(=O)O)nc1C1=CCOCC1 [Compound I-1]', 'Tmax', 1);

* * *

Protocol notes: Pharmacokinetic studies of certain compounds in female Balb/c mice (Example 5)
Type: in vivo
Run parameters: female, Balb/c, mouse, plasma, po, 30 mg/kg, I-3 PO 30 mg/kg, 0.5 hr, read-out: Plasma concentration Individual
Readout kind: concentration at 0.5 hr

INSERT INTO measurements (record_smiles, readout_kind, measured_value) VALUES
  ('CC(C)Cc1sc(Nc2ncc(-c3cccs3)cc2C(=O)O)nc1C1CCCCC1', 'concentration at 0.5 hr', '1950 ng/mL');

* * *

Protocol notes: Pharmacokinetic studies of certain compounds in female Balb/c mice (Example 5)
Assay type: in vivo
Run parameters: mouse, plasma, I-2 PO 30 mg/kg
Readout kind: Tmax

INSERT INTO assay_data (compound, measured_value) VALUES
  ('CC(C)Cc1sc(Nc2ncc(-c3cccs3)cc2C(=O)O)nc1C1=CCCCC1 [Compound I-2]', '2 h');

* * *

Protocol notes: Pharmacokinetic studies of certain compounds in female Balb/c mice (Example 5)
Type: in vivo
Run parameters: female, Balb/c, mouse, plasma, po, 30 mg/kg, I-27 PO 30 mg/kg, 24 hr, read-out: Plasma concentration Individual
Readout kind: concentration at 24 h (ng/mL)

INSERT INTO results (record_smiles, readout_kind, measured_value) VALUES
  ('CC(C)Cc1sc(Nc2ncc(-c3cccs3)cc2C(=O)O)nc1C1(C)CCCCC1', 'concentration at 24 h', 14.2);

* * *

Protocol notes: Pharmacokinetic studies of certain compounds in female Balb/c mice (Example 5)
Assay type: in vivo
Run parameters: mouse, plasma, I-29 PO 23.8 mg/kg
Readout kind: MRT inf (h)

INSERT INTO results (record_smiles, measured_value) VALUES
  ('CC(C)Cc1sc(Nc2ncc(-c3cccs3)cc2C(=O)O)nc1C1CCC(F)(F)CC1', 3.51);

* * *

Protocol notes: Pharmacokinetic studies of certain compounds in female Balb/c mice (Example 5)
Assay type: in vivo
Run parameters: female, Balb/c, mouse, plasma, po, 30 mg/kg, I-3 PO 30 mg/kg, 4 hr, read-out: Plasma concentration Mean
Readout kind: concentration at 4 hr

INSERT INTO measurements (compound, readout_kind, measured_value) VALUES
  ('CC(C)Cc1sc(Nc2ncc(-c3cccs3)cc2C(=O)O)nc1C1CCCCC1 [Compound I-3]', 'concentration at 4 hr', '916 ng/mL');
